Catalogue of compounds with associated pIC50
- Tested on: CEM cells HIV-1 protection, formazan growth assay
- experiment: NCI AIDS Antiviral Assay
- condition-summary: measured here: growth of uninfected CEM cells
Scale: pIC50 equals -log10([C]), with [C] in mol/L.

Answered examples (4):
{"compound": "CC1OC(=O)C2=C1C(=O)CC(C)(C)O2 (stereo not given)", "pIC50": 3.77}
{"compound": "O=C(NCCO)c1ccc[c]([Sb](=[O])([OH])[OH])c1", "pIC50": 3.40}
{"compound": "CC1CN2COC(=S)SSSSC(=S)OCN3CC(C)N(COC(=S)SSSSC(=S)OCN1CC2C)CC3C (stereo not given)", "pIC50": 4.92}
{"compound": "CCOC(COc1c2occc2cc2ccc(=O)oc12)OCC", "pIC50": 4.29}

Then this compound:
Which pIC50 reading was recorded for the compound CCN1C2=NCCN2S(=O)(=O)c2ccccc21 ?
3.32
